- test-target: immobilized AChE (Electrophorus electricus, UniProt O42275)
- Construct: purchased Sigma (St. Louis, MO, USA)
- Sequence (O42275 24-633): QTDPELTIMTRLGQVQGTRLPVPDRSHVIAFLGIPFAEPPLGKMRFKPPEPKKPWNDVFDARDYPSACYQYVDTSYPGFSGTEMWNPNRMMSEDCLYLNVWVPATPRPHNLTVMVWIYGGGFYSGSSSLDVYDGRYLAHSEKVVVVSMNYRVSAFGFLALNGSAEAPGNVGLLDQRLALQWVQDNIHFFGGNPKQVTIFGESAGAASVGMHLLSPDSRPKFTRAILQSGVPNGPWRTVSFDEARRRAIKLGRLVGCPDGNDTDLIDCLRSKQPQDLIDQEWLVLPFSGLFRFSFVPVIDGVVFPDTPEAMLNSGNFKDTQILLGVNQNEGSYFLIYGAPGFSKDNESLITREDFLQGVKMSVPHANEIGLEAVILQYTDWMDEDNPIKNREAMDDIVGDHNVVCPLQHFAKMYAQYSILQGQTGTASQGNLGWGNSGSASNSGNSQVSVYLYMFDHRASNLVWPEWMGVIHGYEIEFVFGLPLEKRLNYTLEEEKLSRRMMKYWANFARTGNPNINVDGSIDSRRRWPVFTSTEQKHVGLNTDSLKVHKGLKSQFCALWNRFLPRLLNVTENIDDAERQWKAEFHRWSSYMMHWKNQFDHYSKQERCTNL
- protocol: biochemical
- Type: binding
- measurement-context: affinity fit, 25°C; read-out: KD Affinity
Below is a list of entries, each paired with its recorded pKd value.
Note on units: pKd is unitless, being -log10 of a concentration expressed in mol/L.

Recorded pKd for CC(/C=C/C=C(\C)C(=O)O[C@@H]1O[C@H](CO[C@@H]2O[C@H](CO)[C@@H](O)[C@H](O)[C@H]2O)[C@@H](O)[C@H](O)[C@H]1O)=C\C=C\C=C(C)\C=C\C=C(/C)C(=O)O[C@@H]1O[C@H](CO[C@@H]2O[C@H](CO)[C@@H](O)[C@H](O)[C@H]2O)[C@@H](O)[C@H](O)[C@H]1O , please?
3.32

What does the data say about its pKd? Entry: O.Oc1cc(O)c2c(c1)O[C@H](c1ccc(O)c(O)c1)[C@@H](O)C2 [Catechin hydrate, catechin hydrate]
3.13

* * *

- test-target: immobilized AChE (Electrophorus electricus, UniProt O42275)
- Construct: purchased Sigma (St. Louis, MO, USA)
- protocol: biochemical
- Type: binding
- measurement-context: two-state model, 25°C
Where a name gives a salt, the structure may show the parent alone.
If the reported Ka1 equals or exceeds 100 M⁻¹ s⁻¹, assign 1. If not, assign 0.

Does the compound O=c1c(O)c(-c2ccc(O)c(O)c2)oc2cc(O)cc(O)c12 [Quercetin, quercetin] have recorded Ka1 that is 100 M⁻¹ s⁻¹ or more?
1

Is reported Ka1 greater than or equal to 100 M⁻¹ s⁻¹ here: CC(=O)SCC[N+](C)(C)C.[I-] [ATCI, acetylthiocholine iodide, reference compound]
1

Decide: Ka1 of O[C@H]1[C@H]2c3cc4c(cc3CN3CCC(=C[C@@H]1O)[C@H]23)OCO4 [Lycorine hydrochloride, lycorine hydrochloride] >= 100 M⁻¹ s⁻¹?
1

Entry O.Oc1cc(O)c2c(c1)O[C@H](c1ccc(O)c(O)c1)[C@@H](O)C2 [Catechin hydrate, catechin hydrate] : is its Ka1 no less than 100 M⁻¹ s⁻¹?
0

---
Hi team, for C[C@@H]1O[C@@H](OC[C@H]2O[C@@H](Oc3c(-c4ccc(O)c(O)c4)oc4cc(O)cc(O)c4c3=O)[C@H](O)[C@@H](O)[C@@H]2O)[C@H](O)[C@H](O)[C@H]1O [Rutin hydrate, rutin hydrate] , is the recorded Ka1 at or above 100 M⁻¹ s⁻¹?
0

Kindly determine if Ka1 recorded for CC(/C=C/C=C(\C)C(=O)O[C@@H]1O[C@H](CO[C@@H]2O[C@H](CO)[C@@H](O)[C@H](O)[C@H]2O)[C@@H](O)[C@H](O)[C@H]1O)=C\C=C\C=C(C)\C=C\C=C(/C)C(=O)O[C@@H]1O[C@H](CO[C@@H]2O[C@H](CO)[C@@H](O)[C@H](O)[C@H]2O)[C@@H](O)[C@H](O)[C@H]1O [Crocin, crocin] is above or exactly 100 M⁻¹ s⁻¹.
1

Tell me whether Ka1 is at least 100 M⁻¹ s⁻¹ here: Oc1cccc(O)c1O [Pyrogallol, pyrogallol]
1

Is the recorded value of Ka1 equal to or greater than 100 M⁻¹ s⁻¹ for this compound? C[N+](C)(C)CCOC(N)=O [Carbachol, carbachol, reference compound]
1

Where do these numbers come from? They come from paper PMC6544338.
